# ASSAY TARGET: MK2 (Homo sapiens)
# Sequence (P49137 whole entry): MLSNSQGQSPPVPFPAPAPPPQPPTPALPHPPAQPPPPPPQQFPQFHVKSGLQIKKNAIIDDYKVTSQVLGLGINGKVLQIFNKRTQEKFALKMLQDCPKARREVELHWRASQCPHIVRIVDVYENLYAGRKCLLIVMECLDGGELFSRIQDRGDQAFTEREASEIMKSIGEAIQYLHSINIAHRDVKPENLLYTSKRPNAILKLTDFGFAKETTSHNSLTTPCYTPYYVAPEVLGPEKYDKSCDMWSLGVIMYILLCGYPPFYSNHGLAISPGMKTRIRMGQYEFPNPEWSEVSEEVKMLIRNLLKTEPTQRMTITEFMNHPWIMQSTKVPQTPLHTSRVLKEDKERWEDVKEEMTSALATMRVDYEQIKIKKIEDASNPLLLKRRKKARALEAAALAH
# METHOD NOTES: MK2 degradation in human SW1353 cells (MSD, 24 h)
# Type: cell-based
# Parameters: endogenous in cells; host or cells: SW-1353 (ATCC HTB-94)
# CONDITIONS USED: read-out: MK2 MSD SW1353 degradation 24 h GMean External Abs DC50
OUTCOME MEASURE: DC50

Use these answered entries as a reference point.
• Cn1c(=O)n(C2CCC(=O)NC2=O)c2ccc(N3CCC(CN4CCN(c5ccc(-c6cc(-c7cc8c([nH]7)C7(CCC7)CNC8=O)ccn6)cn5)CC4)CC3)cc21 (centres unmarked) = < 1 nM
• C[C@@H]1CNc2c(sc3ccc4nc(-c5ccc(N6CCN(CCCCCCCCc7ccc8c(c7)n(C)c(=O)n8C7CCC(=O)NC7=O)CC6)cc5)ccc4c23)C(=O)N1 (some centres unmarked) = 1 to 10 nM
• Cn1c(=O)n(C2CCC(=O)NC2=O)c2ccc(N3CCC(CN4CCN(c5cc(-c6ccccc6)cc(-c6cc(-c7cc8c([nH]7)CCNC8=O)ccn6)c5)CC4)CC3)cc21 (centres unmarked) = > 100 nM
• C[C@@H]1CNc2c(sc3ccc4nc(-c5ccc(N6CCC(CN7CCN(c8cccc9c8n(C)c(=O)n9C8CCC(=O)NC8=O)CC7)CC6)cc5)ccc4c23)C(=O)N1 (some centres unmarked) = 1 to 10 nM
• C[C@@H]1CNc2c(sc3ccc4nc(-c5ccc(N6CCC(CN7CCC(c8ccc9c(c8)n(C)c(=O)n9C8CCC(=O)NC8=O)CC7)CC6)cc5)ccc4c23)C(=O)N1 (some centres unmarked) = < 1 nM
• C[C@@H]1CNc2c(sc3ccc4nc(N5CCC(CN6CCC7(CC6)CCN(c6ccc8c(c6)n(C)c(=O)n8C6CCC(=O)NC6=O)CC7)CC5)ccc4c23)C(=O)N1 (some centres unmarked) = < 1 nM

Now for a further compound.
# DC50 of CN1CCc2[nH]c(-c3ccnc(-c4ccc(N5CCN(CC6CCN(c7ccc8c(c7)n(C)c(=O)n8C7CCC(=O)NC7=O)CC6)CC5)cc4)c3)cc2C1=O (centres unmarked) = > 100 nM
